Target: Progesterone receptor (Oryctolagus cuniculus) (UniProt P06186)
Sequence (P06186 whole entry): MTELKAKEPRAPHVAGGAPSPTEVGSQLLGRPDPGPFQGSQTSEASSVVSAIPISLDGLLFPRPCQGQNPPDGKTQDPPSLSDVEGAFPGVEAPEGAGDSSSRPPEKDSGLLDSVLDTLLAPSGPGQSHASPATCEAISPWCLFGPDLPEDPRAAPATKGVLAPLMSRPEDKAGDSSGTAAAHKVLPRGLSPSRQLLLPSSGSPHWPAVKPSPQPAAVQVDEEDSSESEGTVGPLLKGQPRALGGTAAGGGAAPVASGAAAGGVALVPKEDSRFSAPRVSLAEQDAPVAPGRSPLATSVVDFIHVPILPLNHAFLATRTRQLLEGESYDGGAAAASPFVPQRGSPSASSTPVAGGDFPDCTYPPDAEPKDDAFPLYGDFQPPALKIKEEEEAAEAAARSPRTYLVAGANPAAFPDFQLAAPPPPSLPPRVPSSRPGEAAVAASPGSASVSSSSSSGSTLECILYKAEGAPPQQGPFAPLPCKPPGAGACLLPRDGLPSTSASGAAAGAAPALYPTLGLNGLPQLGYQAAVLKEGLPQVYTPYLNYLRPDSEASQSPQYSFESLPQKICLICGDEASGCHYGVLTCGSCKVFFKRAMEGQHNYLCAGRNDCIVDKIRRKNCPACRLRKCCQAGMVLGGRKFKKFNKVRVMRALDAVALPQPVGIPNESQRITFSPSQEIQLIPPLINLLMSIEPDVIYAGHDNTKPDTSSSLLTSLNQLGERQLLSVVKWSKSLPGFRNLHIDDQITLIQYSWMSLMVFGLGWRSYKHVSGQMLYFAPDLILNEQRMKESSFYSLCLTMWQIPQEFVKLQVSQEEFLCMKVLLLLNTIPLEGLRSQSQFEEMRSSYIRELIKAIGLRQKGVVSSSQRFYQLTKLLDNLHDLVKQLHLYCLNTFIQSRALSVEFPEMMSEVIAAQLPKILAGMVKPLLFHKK
Test: Relative binding affinity to rabbit progesterone receptor
log(RBA) reference
Parameter measured: log(RBA)

| Compound smiles | Parameter measured | Readout value |
| --- | --- | --- |
| CC(=O)[C@H]1CC[C@H]2[C@@H]3CC[C@H]4CC(=O)CC[C@]4(C)[C@H]3CC[C@]12C | log(RBA) | 1.74 |
| C#C[C@]1(O)CC[C@H]2[C@@H]3CC[C@H]4C[C@H](O)CC[C@@H]4[C@H]3CC[C@@]21C | log(RBA) | -1 |
| C#C[C@]1(O)CC[C@H]2[C@@H]3CC=C4CCCC[C@@H]4[C@H]3CC[C@@]21C | log(RBA) | -0.523 |
| C[C@@H](O)[C@H]1CC[C@H]2[C@@H]3CCC4=CC(=O)CC[C@]4(C)[C@H]3CC[C@]12C | log(RBA) | 1.01 |
| CC(=O)[C@H]1CC[C@H]2[C@@H]3CCC4=CC(=O)CC[C@]4(C)[C@H]3[C@H](O)C[C@]12C | log(RBA) | 0.301 |
| CC[C@@H]1C[C@H]2[C@@H]3CCC4=CC(=O)CC[C@@H]4[C@H]3CC[C@]2(C)[C@H]1C(=O)CO | log(RBA) | 2.44 |
| C#C[C@]1(O)CC[C@H]2[C@H]3[C@H](CC[C@@]21C)[C@H]1CCCC=C1C[C@H]3C | log(RBA) | 0.954 |
| C#C[C@]1(O)CC[C@H]2[C@@H]3CC[C@H]4CC(=O)CC[C@@H]4[C@H]3CC[C@@]21C | log(RBA) | 1.23 |
| C[C@]12CC[C@H]3[C@@H](CCC4=CC(=O)CC[C@@H]43)[C@@H]1CC[C@@H]2O | log(RBA) | 1 |
| CC(=O)[C@@]1(C)CC[C@H]2[C@@H]3CCC4=CC(=O)CCC4=C3CC[C@@]21C | log(RBA) | 2.3 |
| CC(=O)[C@@]1(C)CC[C@H]2[C@@H]3CCC4=CC(=O)CCC4=C3C=C[C@@]21C | log(RBA) | 1.74 |
| CCCCCC(=O)O[C@]1(C(C)=O)CC[C@H]2[C@@H]3CCC4=CC(=O)CC[C@]4(C)[C@H]3CC[C@@]21C | log(RBA) | 1.88 |
| C#C[C@]1(O)CC[C@H]2[C@@H]3CCC4=CC(=O)CC[C@@H]4[C@H]3CC[C@@]21CC | log(RBA) | 2.62 |
| CC(=O)[C@H]1CC[C@H]2[C@@H]3CCC4=CC(=O)C=C[C@]4(C)[C@H]3CC[C@]12C | log(RBA) | 1.3 |
| CC(=O)O[C@]1(C(C)=O)CC[C@H]2[C@@H]3CCC4=C(O)C(=O)CC[C@]4(C)[C@H]3CC[C@@]21C | log(RBA) | 1.77 |
| CC[C@@H]1C[C@H]2[C@@H]3CCC4=CC(=O)CC[C@@H]4[C@H]3CC[C@]2(C)[C@H]1C(=O)CF | log(RBA) | 2.36 |
| C[C@]1(O)CC[C@H]2[C@@H]3CCC4=CCCC[C@@H]4[C@H]3CC[C@@]21C | log(RBA) | 1.3 |
| C#C[C@]1(O)CC[C@H]2[C@@H]3CCC4=CC(=O)CCC4=C3C=C[C@@]21CCC | log(RBA) | 0.7 |
